# Tested target: HIV reverse transcriptase (RT) (Human immunodeficiency virus type 1 group M subtype B)
# Assay overview: Pre-steady-state observed incorporation rate constant
# Format: biochemical, HIV-1
# Setup conditions: 5 μM nucleotide, 6 mM Mg2+
Reported metric: relative rate vs dTTP same [Mg2+]

Molecule	Reported metric	Result
Cc1cn([C@H]2C[C@H](O)[C@@](C)(COP(=O)(O)OP(=O)(O)OP(=O)(O)O)O2)c(=O)[nH]c1=O	relative rate vs dTTP same [Mg2+]	0.28
Cc1cn([C@H]2C[C@H](O)[C@@H](CO[P@](=O)(O)O[P@@](=O)(O)OP(=O)(O)O)O2)c(=O)[nH]c1=O [dTTP, Deoxythymidine triphosphate]	relative rate vs dTTP same [Mg2+]	1
Cc1cn([C@H]2CC[C@@H](COP(=O)(O)OP(=O)(O)OP(=O)(O)O)O2)c(=O)[nH]c1=O	relative rate vs dTTP same [Mg2+]	0.51
Cc1cn([C@H]2C[C@H](N)[C@@H](COP(=O)(O)OP(=O)(O)OP(=O)(O)O)O2)c(=O)[nH]c1=O	relative rate vs dTTP same [Mg2+]	0.22
Cc1cn([C@@H]2C[C@H](COP(=O)(O)OP(=O)(O)OP(=O)(O)O)[C@@H](O)C2)c(=O)[nH]c1=O	relative rate vs dTTP same [Mg2+]	0.092
Cc1cn([C@H]2C[C@H](F)[C@@H](COP(=O)(O)OP(=O)(O)OP(=O)(O)O)O2)c(=O)[nH]c1=O	relative rate vs dTTP same [Mg2+]	0.11

Dear colleague, I am looking for the recorded relative rate vs dTTP same [Mg2+] of the following molecule: `Cc1cn([C@H]2C=C[C@@H](COP(=O)(O)OP(=O)(O)OP(=O)(O)O)O2)c(=O)[nH]c1=O`
0.59

Need relative rate vs dTTP same [Mg2+], item `Cc1cn([C@H]2C[C@H](N=[N+]=[N-])[C@@H](CO[P@](=O)(O)O[P@](=O)(O)OP(=O)(O)O)O2)c(=O)[nH]c1=O`
0.63

Reported relative rate vs dTTP same [Mg2+] for `CC[C@]1(COP(=O)(O)OP(=O)(O)OP(=O)(O)O)O[C@@H](n2cc(C)c(=O)[nH]c2=O)C[C@@H]1O` : what is it?
0.28

---

# Tested target: UniProt P04585
# Assay overview: Pre-steady-state observed incorporation rate constant
# Format: biochemical, HIV-1
# Setup conditions: 5 μM nucleotide, 6 mM Mg2+, 37 °C
Kindly return t if reported kobs ± standard deviation is no lower than 8 s^–1; return f if it is lower.

Compound	Cat
Cc1cn([C@H]2C[C@H](O)[C@@H](CO[P@](=O)(O)O[P@@](=O)(O)OP(=O)(O)O)O2)c(=O)[nH]c1=O [dTTP, Deoxythymidine triphosphate]	t

kobs ± standard deviation >= 8 s^–1 for `CC[C@]1(COP(=O)(O)OP(=O)(O)OP(=O)(O)O)O[C@@H](n2cc(C)c(=O)[nH]c2=O)C[C@@H]1O` ?
f

Hi team, for `Cc1cn([C@H]2C[C@H](N)[C@@H](COP(=O)(O)OP(=O)(O)OP(=O)(O)O)O2)c(=O)[nH]c1=O` , is the recorded kobs ± standard deviation at or above 8 s^–1?
f

Check the entry `Cc1cn([C@H]2C[C@H](N=[N+]=[N-])[C@@H](CO[P@](=O)(O)O[P@](=O)(O)OP(=O)(O)O)O2)c(=O)[nH]c1=O` : does kobs ± standard deviation equal or exceed 8 s^–1?
t

Check this compound for kobs ± standard deviation at or above 8 s^–1: `Cc1cn([C@H]2C=C[C@@H](COP(=O)(O)OP(=O)(O)OP(=O)(O)O)O2)c(=O)[nH]c1=O`
t

Hi team, for `Cc1cn([C@H]2CC[C@@H](COP(=O)(O)OP(=O)(O)OP(=O)(O)O)O2)c(=O)[nH]c1=O` , is the recorded kobs ± standard deviation at or above 8 s^–1?
f
